Every entry's value here was drawn from ChEMBL document CHEMBL1140166.

method: Ratio of drug level from cerebrospinal fluid to plasma in rat at 10 mg/kg, po after 9 hrs
Assay type: ADME, organism-based, CSF/Plasma
Set-up: dose 10 mg/kg, route oral

| molecule | Kp at 9 h |
| --- | --- |
| CC(C)(C)CCN1CC[C@H](CNC(=O)c2cc(Cl)cc(Cl)c2)[C@H](F)C1 | 0.14 |

* * *

method: AUC in rhesus monkey at 3 mg/kg, po
Type: ADME, organism-based, Macaca mulatta
Set-up: dose 3 mg/kg, route oral
experimental conditions: plasma
observable: AUC (µM·h)

| molecule | observable | readout value |
| --- | --- | --- |
| CC(C)(C)CCN1CC[C@H](CNC(=O)c2cc(Cl)cc(Cl)c2)[C@H](F)C1 | AUC | 2.4 |

* * *

method: AUC in Sprague-Dawley rat at 1 mg/kg, po
Assay type: ADME, organism-based
Parameters: dose 1 mg/kg, route oral
experimental conditions: plasma
observable: AUC (µM·h)

| molecule | readout value |
| --- | --- |
| CC(C)(C)CCN1CC[C@H](CNC(=O)c2cc(Cl)cc(Cl)c2)[C@H](F)C1 | 0.19 |

* * *

method: Half life in Beagle dog at 1 mg/kg, iv
Type: ADME, organism-based, Canis lupus familiaris
Parameters: dose 1 mg/kg, route intravenous
experimental conditions: in vivo

| molecule | half-life |
| --- | --- |
| CC(C)(C)CCN1CC[C@H](CNC(=O)c2cc(Cl)cc(Cl)c2)[C@H](F)C1 | 10.8 h |

* * *

method: Ratio of drug level from brain to plasma in rat at 10 mg/kg, po after 9 hrs
Format: ADME, organism-based
Parameters: dose 10 mg/kg, route oral
observable: Kp at 9 h

| molecule | readout value |
| --- | --- |
| CC(C)(C)CCN1CC[C@H](CNC(=O)c2cc(Cl)cc(Cl)c2)[C@H](F)C1 | 9 |

* * *

method: AUC in Sprague-Dawley rat at 0.3 mg/kg, po
Type: ADME, organism-based
Set-up: dose 0.3 mg/kg, route oral
experimental conditions: plasma

| molecule | AUC, µM·h |
| --- | --- |
| CC(C)(C)CCN1CC[C@H](CNC(=O)c2cc(Cl)cc(Cl)c2)[C@H](F)C1 | 0.01 |

* * *

method: Cmax in rhesus monkey at 3 mg/kg, po
Format: ADME, organism-based, Macaca mulatta
Set-up: dose 3 mg/kg, route oral
experimental conditions: in vivo

| molecule | Cmax (nM) |
| --- | --- |
| CC(C)(C)CCN1CC[C@H](CNC(=O)c2cc(Cl)cc(Cl)c2)[C@H](F)C1 | 184 |

* * *

method: Dissociation constant, pKa of the compound
Type: physicochemical
# if value of pKa reaches 8, tag y; if it stays below, tag n

| compound | class label |
| --- | --- |
| CC(C)(C)CCN1CCC(CNC(=O)c2cc(Cl)cc(Cl)c2)CC1 | y |
| CC(C)(C)CCN1CC[C@@H](CNC(=O)c2cc(Cl)cc(Cl)c2)[C@H](F)C1 (relative stereo) | n |
| CC(C)(C)C(O)CN1CCC(CNC(=O)c2cc(Cl)cc(Cl)c2)CC1 (configuration not stated) | y |
| CC(C)(C)NC(=O)CN1CCC(CNC(=O)c2cc(Cl)cc(Cl)c2)CC1 | n |
